Assay: probe aNog binding to arrayed compounds – biochemical, biotinylated probe, 635/667 nm fluorescence, primary screen (AID 1115);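 note: probe is biotinylated aNog protein used at 0.15 µg/mL for 1 h at 4 C; z-score combines 667 nm fluorescence of each spot with its signal to noise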
Conditions: small-molecule microarray, higher = more signal
The entries below are paired with their reported composite z-score.

[
  {
    "compound": "COC(=O)[C@@]1(Cc2ccc(OC)cc2)[C@H]2c3cc(C(=O)N(C)C)n(Cc4ccc(C(F)(F)F)nc4)c3C[C@H]2CN1C(=O)c1ccccc1",
    "composite z-score": 0.18
  },
  {
    "compound": "COC(=O)c1c(CC[C@@H](CO)NC(=O)NCCc2c[nH]c3ccccc23)oc(C(=O)Cc2ccccc2)c1C(=O)OC",
    "composite z-score": -0.33
  },
  {
    "compound": "COC(=O)C(CC#Cc1ccc2c(c1)[C@]1(C(=O)N2)[C@H](c2ccccc2OCCO)N2[C@H](c3ccccc3)[C@H](c3ccccc3)OC(=O)[C@H]2[C@@H]1C(N)=O)C(=O)OC",
    "composite z-score": 2.29
  },
  {
    "compound": "CC(C)CCC[C@@H](C)[C@H]1CC[C@@]2(C)C3=C(CC[C@]12C)[C@@]1(C)CC[C@H](OC(=O)c2ccc(C(F)(F)F)nc2)C(C)(C)C1CC3 (some centres not stated)",
    "composite z-score": -0.68
  },
  {
    "compound": "C=CCN1C(=O)[C@]2(Cc3ccccc3)N=C(c3ccc(OCCCO)cc3)O[C@@H]2c2ccccc21",
    "composite z-score": -0.802
  },
  {
    "compound": "O=C(NCc1ccccc1)[C@@H]1c2ccccc2C(=O)N(C2Cc3ccccc3C2)[C@H]1c1ccc(CO)cc1",
    "composite z-score": 1.13
  },
  {
    "compound": "COc1cc(CO)cc(I)c1O[C@H]1C=C(C(=O)NCCO)C[C@@H](N(C(=O)c2cc3ccccc3oc2=O)C2CCCCCC2)[C@@H]1O",
    "composite z-score": -0.267
  }
]

Value source: PubChem BioAssay
